- Protocol summary: In vivo kinetics experiment (radioactivity distribution)
- Set-up: species or system Wistar male rat
- Measurement conditions: 10 min after administration; rat i.v.; mean ± SD
Mark label 1 for Radioactivity distribution Small intestine under 2 % ID/g, label 0 if at or over.

Strictly below 2 % ID/g in Radioactivity distribution Small intestine? COc1cc([123I])cc2c1nc(-c1cncc(Cn3ccnc3)c1)n2C1CC1 [[^123I] 609]
label 1

Strictly below 2 % ID/g in Radioactivity distribution Small intestine? FCCn1c(-c2cncc(Cn3ccnc3)c2)nc2ccc([123I])cc21 [[^123I] 604]
label 1

Strictly below 2 % ID/g in Radioactivity distribution Small intestine? CCn1c(-c2cncc(Cn3ccnc3)c2)nc2ccc([123I])cc21 [[^123I] 608]
label 1

Strictly below 2 % ID/g in Radioactivity distribution Small intestine? FCCn1c(-c2cncc(Cn3cncc3[123I])c2)nc2cc(F)c(Cl)cc21 [[^123I] 610]
label 1

Strictly below 2 % ID/g in Radioactivity distribution Small intestine? Cn1c(-c2cncc(Cn3ccnc3)c2)nc2ccc([123I])cc21 [[^123I] 607]
label 0

###

- Protocol summary: In vivo kinetics experiment (radioactivity distribution)
- Parameters: species or system Wistar male rat
- Measurement conditions: rat, caudal vein, 10 min after administration
Property: Radioactivity distribution Remaining whole body (% ID/g)
Numbers only; they are read as % ID/g.

Query: Radioactivity distribution Remaining whole body; subject: [123I]c1ccc2nc(-c3cncc(Cn4ccnc4)c3)n(C3CC3)c2c1 [[^123I] 602]
0.27

Query: Radioactivity distribution Remaining whole body; subject: Fc1cc2nc(-c3cncc(Cn4ccnc4)c3)n(CC[18F])c2cc1Br [[^18F] 200]
0.15

Query: Radioactivity distribution Remaining whole body; subject: FCCn1c(-c2cncc(Cn3ccnc3)c2)nc2cc(F)c([123I])cc21 [[^123I] 400]
0.27

Query: Radioactivity distribution Remaining whole body; subject: [123I]c1ccc2nc(-c3cncc(Cn4ccnn4)c3)n(C3CC3)c2c1 [[^123I] 603]
0.24

Query: Radioactivity distribution Remaining whole body; subject: Fc1cc2nc(-c3cncc(Cn4ccnc4)c3)n(CC[18F])c2cc1Cl [[^18F] 100]
0.22

Query: Radioactivity distribution Remaining whole body; subject: Fc1cc2nc(-c3cncc(Cn4ccnc4)c3)n(CCC[18F])c2cc1Cl [[^18F] 500]
0.20

###

- Protocol summary: In vivo kinetics experiment (radioactivity distribution)
- Design: species or system Wistar male rat
- Measurement conditions: rat, caudal vein, 10 min after administration
Assign Radioactivity distribution Stomach to each entry below.
Numbers only; they are read as % ID/g.

Query: Radioactivity distribution Stomach; subject: [123I]c1ccc2nc(-c3cncc(Cn4ccnc4)c3)n(C3CC3)c2c1 [[^123I] 602]
1.03

Query: Radioactivity distribution Stomach; subject: [123I]c1ccc2nc(-c3cncc(Cn4ccnn4)c3)n(C3CC3)c2c1 [[^123I] 603]
0.66

Query: Radioactivity distribution Stomach; subject: Fc1cc2nc(-c3cncc(Cn4ccnc4)c3)n(CC[18F])c2cc1Cl [[^18F] 100]
0.56

Query: Radioactivity distribution Stomach; subject: Fc1cc2nc(-c3cncc(Cn4ccnc4)c3)n(CC[18F])c2cc1Br [[^18F] 200]
0.36

Query: Radioactivity distribution Stomach; subject: FCCn1c(-c2cncc(Cn3ccnc3)c2)nc2cc(F)c([123I])cc21 [[^123I] 400]
1.03

Query: Radioactivity distribution Stomach; subject: Fc1cc2nc(-c3cncc(Cn4ccnc4)c3)n(CCC[18F])c2cc1Cl [[^18F] 500]
0.86

###

Assign Radioactivity distribution Liver to each entry below.
- Protocol summary: In vivo kinetics experiment (radioactivity distribution)
- Set-up: species or system Wistar male rat
- Measurement conditions: 10 min after administration; rat i.v.; mean ± SD
Numbers only; they are read as % ID/g.

Query: Radioactivity distribution Liver; subject: CC(C)n1c(-c2cncc(Cn3ccnc3)c2)nc2ccc([123I])cc21 [[^123I] 606]
3.24

Query: Radioactivity distribution Liver; subject: COC(=O)c1cncn1[C@H](C)c1ccc(I)cc1 [[^123I] IMTO, (R)-[^123I]iodometomidate, reference compound]
3.29

Query: Radioactivity distribution Liver; subject: Cn1c(-c2cncc(Cn3ccnc3)c2)nc2ccc([123I])cc21 [[^123I] 607]
2.93

Query: Radioactivity distribution Liver; subject: CCn1c(-c2cncc(Cn3ccnc3)c2)nc2ccc([123I])cc21 [[^123I] 608]
3.03

Query: Radioactivity distribution Liver; subject: FCCn1c(-c2cncc(Cn3ccnc3)c2)nc2ccc([123I])cc21 [[^123I] 604]
4.09

Query: Radioactivity distribution Liver; subject: COc1cc([123I])cc2c1nc(-c1cncc(Cn3ccnc3)c1)n2C1CC1 [[^123I] 609]
5.50

Query: Radioactivity distribution Liver; subject: Fc1cc2nc(-c3cncc(Cn4ccnc4)c3)n(Cc3ccc([123I])cc3)c2cc1Cl [[^123I] 605]
4.12

Query: Radioactivity distribution Liver; subject: FCCn1c(-c2cncc(Cn3cncc3[123I])c2)nc2cc(F)c(Cl)cc21 [[^123I] 610]
3.43

###

- Protocol summary: In vivo kinetics experiment (radioactivity distribution)
- Parameters: species or system Wistar male rat
- Measurement conditions: 10 min after administration; rat i.v.; mean ± SD
Property: Radioactivity distribution Adrenal gland (% ID/g)
Numbers only; they are read as % ID/g.

Query: Radioactivity distribution Adrenal gland; subject: Fc1cc2nc(-c3cncc(Cn4ccnc4)c3)n(Cc3ccc([123I])cc3)c2cc1Cl [[^123I] 605]
5.67

Query: Radioactivity distribution Adrenal gland; subject: FCCn1c(-c2cncc(Cn3cncc3[123I])c2)nc2cc(F)c(Cl)cc21 [[^123I] 610]
12.62

Query: Radioactivity distribution Adrenal gland; subject: CCn1c(-c2cncc(Cn3ccnc3)c2)nc2ccc([123I])cc21 [[^123I] 608]
8.76

Query: Radioactivity distribution Adrenal gland; subject: Cn1c(-c2cncc(Cn3ccnc3)c2)nc2ccc([123I])cc21 [[^123I] 607]
11.13

Query: Radioactivity distribution Adrenal gland; subject: FCCn1c(-c2cncc(Cn3ccnc3)c2)nc2ccc([123I])cc21 [[^123I] 604]
10.24

Query: Radioactivity distribution Adrenal gland; subject: COc1cc([123I])cc2c1nc(-c1cncc(Cn3ccnc3)c1)n2C1CC1 [[^123I] 609]
8.54

Query: Radioactivity distribution Adrenal gland; subject: COC(=O)c1cncn1[C@H](C)c1ccc(I)cc1 [[^123I] IMTO, (R)-[^123I]iodometomidate, reference compound]
22.14

Query: Radioactivity distribution Adrenal gland; subject: CC(C)n1c(-c2cncc(Cn3ccnc3)c2)nc2ccc([123I])cc21 [[^123I] 606]
13.01

###

- Protocol summary: In vivo kinetics experiment (radioactivity distribution)
- Parameters: species or system Wistar male rat
- Measurement conditions: 10 min after administration; rat i.v.; mean ± SD
Assign Radioactivity distribution Remaining whole body to each entry below.
Numbers only; they are read as % ID/g.

Query: Radioactivity distribution Remaining whole body; subject: Cn1c(-c2cncc(Cn3ccnc3)c2)nc2ccc([123I])cc21 [[^123I] 607]
0.27

Query: Radioactivity distribution Remaining whole body; subject: FCCn1c(-c2cncc(Cn3ccnc3)c2)nc2ccc([123I])cc21 [[^123I] 604]
0.24

Query: Radioactivity distribution Remaining whole body; subject: Fc1cc2nc(-c3cncc(Cn4ccnc4)c3)n(Cc3ccc([123I])cc3)c2cc1Cl [[^123I] 605]
0.20

Query: Radioactivity distribution Remaining whole body; subject: COc1cc([123I])cc2c1nc(-c1cncc(Cn3ccnc3)c1)n2C1CC1 [[^123I] 609]
0.20

Query: Radioactivity distribution Remaining whole body; subject: COC(=O)c1cncn1[C@H](C)c1ccc(I)cc1 [[^123I] IMTO, (R)-[^123I]iodometomidate, reference compound]
0.29

Query: Radioactivity distribution Remaining whole body; subject: CC(C)n1c(-c2cncc(Cn3ccnc3)c2)nc2ccc([123I])cc21 [[^123I] 606]
0.29

Query: Radioactivity distribution Remaining whole body; subject: FCCn1c(-c2cncc(Cn3cncc3[123I])c2)nc2cc(F)c(Cl)cc21 [[^123I] 610]
0.30

Query: Radioactivity distribution Remaining whole body; subject: CCn1c(-c2cncc(Cn3ccnc3)c2)nc2ccc([123I])cc21 [[^123I] 608]
0.29

###

- Protocol summary: In vivo kinetics experiment (radioactivity distribution)
- Design: species or system Wistar male rat
- Measurement conditions: 10 min after administration; rat i.v.; mean ± SD
Property: Radioactivity distribution Heart (% ID/g)
Numbers only; they are read as % ID/g.

Query: Radioactivity distribution Heart; subject: COc1cc([123I])cc2c1nc(-c1cncc(Cn3ccnc3)c1)n2C1CC1 [[^123I] 609]
0.36

Query: Radioactivity distribution Heart; subject: COC(=O)c1cncn1[C@H](C)c1ccc(I)cc1 [[^123I] IMTO, (R)-[^123I]iodometomidate, reference compound]
0.48

Query: Radioactivity distribution Heart; subject: FCCn1c(-c2cncc(Cn3ccnc3)c2)nc2ccc([123I])cc21 [[^123I] 604]
0.65

Query: Radioactivity distribution Heart; subject: Fc1cc2nc(-c3cncc(Cn4ccnc4)c3)n(Cc3ccc([123I])cc3)c2cc1Cl [[^123I] 605]
0.73

Query: Radioactivity distribution Heart; subject: CCn1c(-c2cncc(Cn3ccnc3)c2)nc2ccc([123I])cc21 [[^123I] 608]
0.74

Query: Radioactivity distribution Heart; subject: Cn1c(-c2cncc(Cn3ccnc3)c2)nc2ccc([123I])cc21 [[^123I] 607]
0.66

Query: Radioactivity distribution Heart; subject: FCCn1c(-c2cncc(Cn3cncc3[123I])c2)nc2cc(F)c(Cl)cc21 [[^123I] 610]
0.33

Query: Radioactivity distribution Heart; subject: CC(C)n1c(-c2cncc(Cn3ccnc3)c2)nc2ccc([123I])cc21 [[^123I] 606]
0.56

These measurements were taken from patent US10358434B2.
